All figures here come from the supplement of paper PMC11061612.

- Tested on: A704 (Kidney Carcinoma)
- assay.notes: combination Emax (second highest fraction inhibited in the dose matrix, 72 h); higher = more inhibition; extreme values may be limits of the assay
experimental.readout: combination Emax
# respond with the number and nothing more

compound	combination Emax
CC(=O)c1c(C)c2cnc(Nc3ccc(N4CCNCC4)cn3)nc2n(C2CCCC2)c1=O [Palbociclib] + CN(CC[C@H](CSC1=CC=CC=C1)NC2=C(C=C(C=C2)S(=O)(=O)NC(=O)C3=CC=C(C=C3)N4CCC(CC4)[C@H](C5=CC=CC=C5C6=CC=C(C=C6)Cl)O)S(=O)(=O)C(F)(F)F)CCO [AZD4320] (first compound max 10 µM, 7x7, partner max 1 µM)	0.935
COc1nnc2ccc(N3CCC(c4ccc(OCCN5CCN(C)C(=O)[C@H]5C)cc4)CC3)nn12 [AZD5153] + C[C@@H]1COCCN1C2=NC(=NC(=C2)C3(CC3)[S@](=N)(=O)C)C4=C5C=CNC5=NC=C4 [AZD6738] (first compound max 1 µM, 7x7, partner max 10 µM)	0.681
Cc1c2c(nn1C)CSCc1cc(n(C)n1)CSc1cc(c3ccccc3c1)OCCCc1c(C(=O)O)n(C)c3c-2c(Cl)ccc13 [AZD5991] + Cc1cc2ncnn2cc1Nc1ncc2c(n1)n(C1CCOCC1)c(=O)n2C [AZD7648] (first compound max 1 µM, 7x7, partner max 10 µM)	0.259
CC1(C)CCC(CN2CCN(c3ccc(C(=O)NS(=O)(=O)c4ccc(NCC5CCOCC5)c([N+](=O)[O-])c4)c(Oc4cnc5[nH]ccc5c4)c3)CC2)=C(c2ccc(Cl)cc2)C1 [Venetoclax] + C=CCn1c(=O)c2cnc(Nc3ccc(N4CCN(C)CC4)cc3)nc2n1-c1cccc(C(C)(C)O)n1 [AZD1775] (first compound max 1 µM, partner max 1 µM)	0.463
CC1(C)CCC(CN2CCN(c3ccc(C(=O)NS(=O)(=O)c4ccc(NCC5CCOCC5)c([N+](=O)[O-])c4)c(Oc4cnc5[nH]ccc5c4)c3)CC2)=C(c2ccc(Cl)cc2)C1 [Venetoclax] + C[C@@H](Nc1cc(F)cc(F)c1)c1cc(C(=O)N(C)C)cc2c(=O)cc(N3CCOCC3)oc12 [AZD8186] (first compound max 1 µM, 7x7, partner max 3 µM)	0.429

Prompt: // lookup combination Emax for Cc1cc2ncnn2cc1Nc1ncc2c(n1)n(C1CCOCC1)c(=O)n2C [AZD7648] + C=CCn1c(=O)c2cnc(Nc3ccc(N4CCN(C)CC4)cc3)nc2n1-c1cccc(C(C)(C)O)n1 [AZD1775] (first compound max 10 µM, partner max 1 µM)
Response: 0.478

Prompt: // lookup combination Emax for CCN(CCO)CCCOc1ccc2c(Nc3cc(CC(=O)Nc4cccc(F)c4)[nH]n3)ncnc2c1 [AZD2811] + C=CCn1c(=O)c2cnc(Nc3ccc(N4CCN(C)CC4)cc3)nc2n1-c1cccc(C(C)(C)O)n1 [AZD1775] (first compound max 1 µM, partner max 1 µM)
Response: 0.392

Prompt: // lookup combination Emax for CC1(C)CCC(CN2CCN(c3ccc(C(=O)NS(=O)(=O)c4ccc(NCC5CCOCC5)c([N+](=O)[O-])c4)c(Oc4cnc5[nH]ccc5c4)c3)CC2)=C(c2ccc(Cl)cc2)C1 [Venetoclax] + C[C@@H]1COCCN1C2=NC(=NC(=C2)C3(CC3)[S@](=N)(=O)C)C4=C5C=CNC5=NC=C4 [AZD6738] (first compound max 1 µM, 7x7, partner max 10 µM)
Response: 0.48

Prompt: // lookup combination Emax for C=CCn1c(=O)c2cnc(Nc3ccc(N4CCN(C)CC4)cc3)nc2n1-c1cccc(C(C)(C)O)n1 [AZD1775] + C1CN(CCC1(C(=O)N[C@@H](CCO)C2=CC=C(C=C2)Cl)N)C3=NC=NC4=C3C=CN4 [Capivasertib] (first compound max 3 µM, partner max 3 µM)
Response: 0.438
